Reported IC50 against Macrophage colony-stimulating factor 1 receptor (Homo sapiens, UniProt P07333), gathered from multiple publications, appears below.

Before answering, review these 2 worked examples.
{"compound": "Cc1nc(C)c(COc2ccc(F)c(C(=O)c3c[nH]c4ncc(Cl)cc34)c2F)s1", "assayReadout": "IC50", "assayResult": "≤ 10 µM"}
{"compound": "Fc1nc(Nc2ccc(C3CC3)nc2)ccc1Cc1c[nH]c2ncccc12", "assayReadout": "IC50", "assayResult": "< 0.01 µM"}

Reported IC50, compound CCCCNC(=O)Nc1ccc(F)c(C(=O)c2c[nH]c3ncc(-c4cccnc4)cc23)c1F : ____
≤ 10 µM

Proceed to Cc1nc(-c2cnc(NC(C)C)n(C)c2=O)ccc1Cc1c[nH]c2ncccc12
0.0367 µM

Proceed to CCS(=O)(=O)Nc1ccc(F)c(C(=O)c2c[nH]c3ncc(Br)cc23)c1F
≤ 10 µM

###

Reported IC50 against Macrophage colony-stimulating factor 1 receptor (Homo sapiens, UniProt P07333), gathered from multiple publications, appears below.

Before answering, review these 4 worked examples.
{"smilesNotation": "COc1ccc(CNc2ccc(Cc3c[nH]c4ncncc34)c(F)n2)cn1", "assayResult": "≤ 10 µM"}
{"smilesNotation": "CC(C)N1CCOc2c(F)cc(-c3nc(Nc4ccc(C(=O)N5CCC(O)CC5)cn4)ncc3F)cc21", "assayResult": "> 5 µM"}
{"smilesNotation": "CCCS(=O)(=O)Nc1ccc(F)c(C(=O)c2c[nH]c3ncc(-c4cccc(S(C)(=O)=O)c4)cc23)c1F", "assayResult": "≤ 10 µM"}
{"smilesNotation": "CN1CCOc2cc(S(=O)(=O)Nc3ccc(F)c(C(=O)c4c[nH]c5ncc(Cl)cc45)c3F)ccc21", "assayResult": "≤ 10 µM"}

Reported IC50, compound COc1cc(CNc2ccc(Cc3c[nH]c4ncncc34)c(F)n2)cc(C(F)(F)F)c1 : ____
≤ 10 µM

Proceed to O=C(Nc1cccc(C(=O)c2c[nH]c3ncc(Cl)cc23)c1)Nc1ccon1
≤ 10 µM

Proceed to COc1cc2nccc(Oc3ccc(NC(=O)c4nn(C5CC5)cc(-c5ccc(F)cc5)c4=O)nc3)c2cc1OC
0.02 µM

Proceed to O=C(c1ccc(Nc2cccc(O)c2)nc1)c1c[nH]c2ncccc12
≤ 10 µM

Proceed to CC(C)N1CCOc2c(F)cc(-c3nc(Nc4ccc5c(c4)CN(C(=O)CN(C)C)CC5)ncc3F)cc21
0.0015 µM

###

Reported IC50 against Macrophage colony-stimulating factor 1 receptor (Homo sapiens), gathered from multiple publications, appears below.

Before answering, review these 5 worked examples.
{"compound": "COC(=O)/C=C/c1cccc(-c2cnc3[nH]cc(C(=O)c4cccc(NS(C)(=O)=O)c4)c3c2)c1", "IC50": "≤ 10000 nM"}
{"compound": "CC1CN(c2ccc(Nc3ncc4c(=O)c(C(N)=O)cn(-c5ccc6c(c5)CCC6)c4n3)cc2)CC(C)N1 (stereo not drawn)", "IC50": "0.58 nM"}
{"compound": "Cc1ccc(Nc2ccc(C(=O)c3c[nH]c4ncnc(NC5CCCCC5)c34)c(F)n2)cn1", "IC50": "< 100 nM"}
{"compound": "COc1cc2nccc(Oc3ccc(NC(=O)c4nn(C5CCOCC5)cc(-c5ccc(F)cc5)c4=O)nc3)c2cc1OC", "IC50": "< 200 nM"}
{"compound": "Nc1ncc(-c2ccc(CNC3CCN[C@@H](C(=O)OC4CCCC4)C3)cc2)nc1NCc1c(F)cccc1Cl (stereo partly drawn)", "IC50": "< 100 nM"}

Okay, now this compound:
Reported IC50, compound Cc1cc(-c2cc(Oc3ccc(NC(=O)C4(C(=O)Nc5ccc(F)cc5)CC4)c(F)c3)ccn2)on1 : ____
< 200 nM
